- Tested on: S. aureus
- procedureText: MIC by CLSI broth microdilution, S. aureus isolates
- Assay type: cell-based, Staphylococcus aureus
- experimentalContext: Staphylococcus aureus, S. aureus PVL-2
valueKind: MIC (µg/mL)
Output spec: scalar in µg/mL, unitless text.

Request: Could you tell me which MIC is on file for C[C@H]1COc2c(N3CCN(C)CC3)c(F)cc3c(=O)c(C(=O)O)cn1c23 [LVX, levofloxacin] ?
Response: 0.25

Request: So what does the record say about MIC for Cc1nc(NNC(=O)[C@H](CC2CCCC2)CN(O)C=O)c(F)c(N2CCN3CCOC[C@@H]3C2)n1 [GSK1322322] ?
Response: 4

Request: Recorded MIC for Cc1onc(-c2ccccc2)c1C(=O)N[C@@H]1C(=O)N2[C@@H]1SC(C)(C)[C@@H]2C(=O)O [Oxacillin] , please?
Response: 32

Request: Query: MIC; subject: CC(=O)NC[C@H]1CN(c2ccc(N3CCOCC3)c(F)c2)C(=O)O1 [LZD, linezolid]
Response: 2
